- System: Histamine H3 receptor (Homo sapiens, UniProt Q9Y5N1)
- Sequence (Q9Y5N1 whole entry): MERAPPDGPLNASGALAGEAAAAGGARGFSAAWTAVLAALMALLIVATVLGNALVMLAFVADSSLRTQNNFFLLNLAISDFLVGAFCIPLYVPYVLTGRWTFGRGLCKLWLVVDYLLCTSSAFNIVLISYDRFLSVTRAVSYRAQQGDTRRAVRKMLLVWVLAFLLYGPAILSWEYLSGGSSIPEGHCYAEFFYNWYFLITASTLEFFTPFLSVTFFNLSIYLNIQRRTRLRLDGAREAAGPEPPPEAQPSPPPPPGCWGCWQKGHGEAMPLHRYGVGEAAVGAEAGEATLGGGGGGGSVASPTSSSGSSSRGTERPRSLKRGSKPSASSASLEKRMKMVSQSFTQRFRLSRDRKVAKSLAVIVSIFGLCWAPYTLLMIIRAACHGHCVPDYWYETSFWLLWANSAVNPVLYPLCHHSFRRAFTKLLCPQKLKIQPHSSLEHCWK
- Assay Comment: Antagonist activity at human histamine H3 receptor expressed in human SK-N-MC cells assessed as inhibition of forskolin-induced cAMP accumulation after 6 hrs
- Format: functional, cell-based
- Run Conditions: read-out: pA2 (converted)
Endpoint Name: Kb (nM)
Only the number, expressed in nM, is required.

The molecule `CC(C)N1CCCN(C(=O)c2ccc(Oc3ccc(Cl)c(Cl)c3)cn2)CC1` , tested on Histamine H3 receptor (Homo sapiens, UniProt Q9Y5N1), showed Kb of 0.309

Field Kb (system: Histamine H3 receptor (Homo sapiens, UniProt Q9Y5N1)) for entry `O=C(c1ccc(Oc2cccc(Cl)c2)nc1)N1CCCN(C2CCC2)CC1` = 0.871

====

- Assay Comment: Solubility in water
- Format: physicochemical
Endpoint Name: solubility

INSERT INTO measurements (molecule, reported_value) VALUES
  ('N#Cc1cccc(Oc2ccc(C(=O)N3CCCN(C4CCC4)CC3)cn2)c1', '> 100 mg/mL');

Record summary for O=C(c1ccc(Oc2ccc(F)cc2)nc1)N1CCCN(C2CCC2)CC1 [JNJ-39220675] : reported solubility = > 5 mg/mL

====

- Assay Comment: Half life in Sprague-Dawley rat at 1 mg/kg, iv and 10 mg/kg, po
- Type: ADME, organism-based
- Run Conditions: in vivo
Decision: half-life >= 1 h yields Y, all other cases yield N.

Worked examples follow.
INSERT INTO assay_data (smiles_input, group) VALUES
  ('O=C(c1ccc(Oc2ccc(Cl)cc2)nc1)N1CCCN(C2CCC2)CC1', 'Y'),
  ('O=C(c1ccc(Oc2cccc(F)c2)nc1)N1CCCN(C2CCC2)CC1', 'N'),
  ('N#Cc1cccc(Oc2ccc(C(=O)N3CCCN(C4CCC4)CC3)cn2)c1', 'N');

Now take the following compound into account.
Lookup: Form field: half-life at least 1 h? Entry: `O=C(c1ccc(Oc2ccc(F)cc2)nc1)N1CCCN(C2CCC2)CC1`
Found: Y

====

- Assay Comment: Volume of distribution at steady state in Sprague-Dawley rat at 1 mg/kg, iv and 10 mg/kg, po
- Type: ADME, organism-based
- Run Conditions: in vivo, read-out: Vdss
We begin with a simple list: items and their reported Vd.

INSERT INTO assay_data (molecule, reported_value) VALUES
  ('O=C(c1ccc(Oc2ccc(F)cc2)cn1)N1CCCN(C2CCC2)CC1', '4.5 L/kg');

Recorded result, `O=C(c1ccc(Oc2cccc(F)c2)nc1)N1CCCN(C2CCC2)CC1` , Vd: 4.2 L/kg

// Vd value for O=C(c1ccc(Oc2ccc(F)cc2)nc1)N1CCCN(C2CCC2)CC1 [JNJ-39220675] : 3.5 L/kg

====

- System: Histamine H3 receptor (Homo sapiens, UniProt Q9Y5N1)
- Assay Comment: Displacement of [125I]-iodoproxyfan from human recombinant histamine H3 receptor expressed in human SK-N-MC cells after 1 hr by scintillation counting
Endpoint Name: Ki
Your reply should be a number followed by the unit it is expressed in.

Sample records with Ki:
INSERT INTO assay_data (smiles_input, system, endpoint_name, reported_value) VALUES
  ('O=C(c1ccc(Oc2ccccc2Cl)nc1)N1CCCN(C2CCC2)CC1', 'Histamine H3 receptor (Homo sapiens, UniProt Q9Y5N1)', 'Ki', '0.017 µM'),
  ('N#Cc1cccc(Oc2ccc(C(=O)N3CCCN(C4CC4)CC3)cn2)c1', 'Histamine H3 receptor (Homo sapiens, UniProt Q9Y5N1)', 'Ki', '0.012 µM'),
  ('O=C(c1cncc(Oc2ccc(F)cc2)c1)N1CCCN(C2CCC2)CC1', 'Histamine H3 receptor (Homo sapiens, UniProt Q9Y5N1)', 'Ki', '0.017 µM'),
  ('O=C(c1ccc(Oc2ccc(Cl)c(Cl)c2)nc1)N1CCCN(C2CCC2)CC1', 'Histamine H3 receptor (Homo sapiens, UniProt Q9Y5N1)', 'Ki', '0.0076 µM'),
  ('O=C(c1ccc(Oc2ccc(Cl)c(Cl)c2)cn1)N1CCCN(C2CC2)CC1', 'Histamine H3 receptor (Homo sapiens, UniProt Q9Y5N1)', 'Ki', '0.01 µM');

As a next step, examine the compound that follows.
Lab note: measured Ki of `O=C(c1ccc(Oc2ccccc2)nc1)N1CCCN(C2CC2)CC1` was 0.01 µM

====

The compounds listed here are annotated with their remaining at 0.5 h.
- Assay Comment: Metabolic stability in rat liver microsomes assessed as compound remaining after 30 mins
- Assay type: ADME, Microsome
- Run Conditions: read-out: Stability

INSERT INTO assay_data (smiles_input, reported_value) VALUES
  ('O=C(c1ccc(Oc2cccc(Cl)c2)nc1)N1CCCN(C2CC2)CC1', '41%'),
  ('O=C(c1ccc(Oc2ccccc2)nc1)N1CCCN(C2CCC2)CC1', '90%'),
  ('N#Cc1cccc(Oc2ccc(C(=O)N3CCCN(C4CCC4)CC3)cn2)c1', '87%'),
  ('O=C(c1ccc(Oc2ccc(Cl)cc2)nc1)N1CCCN(C2CCC2)CC1', '63%'),
  ('O=C(c1ccc(Oc2cccc(F)c2)nc1)N1CCCN(C2CCC2)CC1', '86%'),
  ('O=C(c1ccc(Oc2cccc(Cl)c2)nc1)N1CCCN(C2CCC2)CC1', '58%');

Short answer for `O=C(c1ccc(Oc2ccc(F)cc2)cn1)N1CCCN(C2CCC2)CC1` : remaining at 0.5 h was 56%

====

This section presents compounds with their documented Kb values.
- System: Histamine H3 receptor (Homo sapiens, UniProt Q9Y5N1)
- Assay Comment: Antagonist activity at human histamine H3 receptor expressed in human SK-N-MC cells assessed as inhibition of forskolin-induced cAMP accumulation after 6 hrs
- Assay type: functional, cell-based
- Run Conditions: read-out: pA2 (converted)
Express your answer in nM, writing the number without its unit.

INSERT INTO assay_data (smiles_input, endpoint_name, endpoint_unit, reported_value) VALUES
  ('O=C(c1ccc(Oc2ccccc2)nc1)N1CCCN(C2CCC2)CC1', 'Kb', 'nM', 0.269),
  ('O=C(c1ccc(Oc2ccc(F)cc2)cn1)N1CCCN(C2CCC2)CC1', 'Kb', 'nM', 1.41);

The value of Kb measured for the compound `O=C(c1ccc(Oc2ccccc2F)cn1)N1CCCN(C2CCC2)CC1` turned out to be 0.537

In plain terms, `N#Cc1cccc(Oc2ccc(C(=O)N3CCCN(C4CCC4)CC3)cn2)c1` has a documented Kb of 0.407

Per the records, this compound ( `O=C(c1ccc(Oc2ccc(F)cc2)nc1)N1CCCN(C2CC2)CC1` ) has Kb equal to 1.58

Data origin, for the record: ChEMBL document CHEMBL1177792
